System: SK-MEL-5 melanoma
EXPERIMENT SUMMARY: NCI tumour cell line growth inhibition, 48 h
Please provide measured TGI for the entries that follow.

COC(=O)[C@]12CC[C@@H](C)[C@H](C)[C@@H]1C1=CC[C@@H]3[C@@]4(C)C(C=O)=C[C@@](C)(COC(=O)c5ccco5)C4=CC[C@@]3(C)[C@]1(C)CC2 yielded TGI of 1.17 µM

Noted for N#CC1=C(N)Oc2c(ccc3cccnc23)C1c1ccccc1 (stereo unspecified) : its TGI reads 13.9 µM

Form field TGI, entry CCN1Cc2c(/C=C/c3ccccc3)nc3ccc(OC)cc3c2N(c2cccc(Cl)c2)C1 : 3 µM

Lab note: measured TGI of C[C@@]12[Se]c3ccccc3[C@]1(C)[Se]c1ccccc12 was > 100 µM

Form: compound = CCCCCCCCCCCCCCCCCCOC(COP(=O)(O)OCC1OC(n2cc(F)c(=O)[nH]c2=O)CC1O)COP(=O)(O)OCC1OC(n2ccc(N)nc2=O)C(O)C1O (stereo unspecified) ; TGI = > 100 µM

get_value(item= Nc1nc(N)c2cc(S(=O)(=O)c3ccccc3)ccc2n1 , readout=TGI) returns > 100 µM

###

System: NCI-H460 lung
EXPERIMENT SUMMARY: NCI tumour cell line growth inhibition, 48 h
Provide the reported TGI of each item.

Documented TGI of COc1ccc(/C=N/NC(=O)CSc2nc(-c3ccccc3)c(-c3ccccc3)[nH]2)cc1OC : 91.6 µM

Short answer for O=C(Cc1ccccc1)N/N=C(/c1nc2ccc([N+](=O)[O-])cc2[nH]c1=O)C(O)c1ccco1 (stereo unspecified) : TGI was > 100 µM

Please fill in: TGI reported for Clc1cccc(/C=c2\nc(-c3ccccc3)n3c2nc2ccccc23)c1 = > 100 µM

Entry OCC(O)C(OC1OC(CO)C(O)C(O)C1O)c1nn(-c2ccc(Cl)cc2)c2nc3cc(Cl)c(Cl)cc3nc12 (stereo unspecified) — recorded TGI = > 100 µM

TGI measured on COC(=O)C1OC(SCCN)C(O)C(O)C1O (stereo unspecified) = > 100 µM

The reported TGI of the compound COc1cc(NC(=O)c2cc3ccccc3cc2O)c(OC)cc1Cl was 4.91 µM

TGI in this record for CS(=O)(=O)Nc1ccc(NCc2cnc3ccc4[nH]cccc4c23)cc1 : > 100 µM

The compound listed as N#CC(C#N)[C@@H]1CCC=C(Sc2ccccc2)[C@H]1Sc1ccccc1 shows TGI equal to 13.6 µM

TGI in this record for Nc1ccc(Cc2ccc(N)c(C(=O)O)c2)cc1C(=O)O : > 100 µM

Lab note: measured TGI of CC1=C(C(=O)NCc2ccccc2)C(c2ccc(N(C)C)cc2)C(C(=O)NCc2ccccc2)=C(C)N1 was > 100 µM

Field TGI (entry CC(C)C1COC(C(C)(C)C2=N[C@@H](C(C)C)CO2)=N1 (stereo partly specified) ) reads > 100 µM

###

System: UO-31 renal
EXPERIMENT SUMMARY: NCI tumour cell line growth inhibition, 48 h
Please provide measured TGI for the entries that follow.

Per the records, this compound ( Cc1cc(=O)[nH]c(Sc2ccc([N+](=O)[O-])cc2[N+](=O)[O-])n1 ) has TGI equal to 37.1 µM

Value of measured TGI for the entry CCCCCCCCCCCc1cc(=O)c2c(O)cccc2o1 : > 100 µM

Entry under test: CCC1=NC(N/N=C/c2ccco2)=N/C1=C\c1ccco1 . Its TGI was > 100 µM

Measured TGI, CN(C(=O)C12C3(C(=O)O)C4C5(C(=O)O)C3C1(C(=O)O)C5C42C(=O)O)C(C)(C)C (configuration not stated) : > 100 µM

GET /value?item= c1ccc(C[N+]23C(CC[C@H]2c2ccccc2)CC[C@H]3c2ccccc2)cc1 (some centres not stated) &field=TGI returns > 100 µM

The recorded TGI for entry CC1(C)CC(C(=O)OCCCCCCCCCCC[P+](c2ccccc2)(c2ccccc2)c2ccccc2)C(C)(C)N1O (configuration not stated) equals 2.29 µM

Reported TGI for NC(=S)NN=C1Cc2ccccc2C1 was > 100 µM

###

Test system: SR leukemia
EXPERIMENT SUMMARY: NCI tumour cell line growth inhibition, 48 h
For each entry below, report its log10 of TGI value.
Scale type: logarithmic (base 10). Underlying TGI unit: µM.

Form: molecule = CCN1C(=O)N[C@H]2[C@@H]3NC(=O)c4ccc(Cl)n4[C@@H]3C[C@]21O ; log10 of TGI = -0.01

// log10 of TGI lookup, molecule = O=C(Oc1c(Cl)c(Cl)c(Cl)c(Cl)c1Cl)C1CCCN1C(=O)OCc1ccccc1 (stereo unspecified) , result: 1.20

log10 of TGI for COc1ccc(N2C(=O)C3c4[nH]c5ccc(OC)cc5c4C4CCC(c5ccccc5)CC4C3C2=O)cc1 (stereo unspecified) is 0.39

The recorded log10 of TGI for entry CS(=O)(=O)Nc1cccc(-c2ccc3ncnc(Nc4cncc(Cl)c4)c3c2)c1 equals 0.74

Summary for this molecule, COc1cc(S(=O)(=O)Nc2ccc(-c3csc(/N=C\c4cccc(Oc5ccccc5)c4)n3)cc2)ccc1Cl : log10 of TGI is 1.91

###

System: A549 NSCLC
EXPERIMENT SUMMARY: NCI tumour cell line growth inhibition, 48 h
For each of the molecules below, state its TGI.

Kindly note: A549 NSCLC, CN(CCCN1CCCC1)CCCN(C)C(=O)Cc1ccc(Cl)c(Cl)c1 , TGI value reported: > 53.6 µM

Reported A549 NSCLC TGI for item C=CCc1cccc(/C(O)=C/C(=O)/C=C/c2ccccc2Cl)c1O was > 100 µM

Reported TGI (A549 NSCLC) for entry COc1ccc(-c2cncn2-c2ccc(-c3nc4cc(OC)c(OC)c(OC)c4s3)cc2)cc1N is > 100 µM

Here O=S(=O)(N1CCCCN(S(=O)(=O)C(F)(F)F)CCCN(S(=O)(=O)C(F)(F)F)CCCCN(S(=O)(=O)C(F)(F)F)CCCN(S(=O)(=O)C(F)(F)F)CCCCN(S(=O)(=O)C(F)(F)F)CCCN(S(=O)(=O)C(F)(F)F)CCCCN(S(=O)(=O)C(F)(F)F)CCC1)C(F)(F)F was tested on A549 NSCLC, and its TGI came to > 31.6 µM

Record CC[C@H](C)C(=O)O[C@H]1C[C@@H](C)C=C2C=C[C@H](C)[C@H](CC[C@@H]3C[C@@H](O)CC(=O)O3)[C@H]21 has A549 NSCLC TGI equal to > 100 µM

Per the reported A549 NSCLC data, O=c1[nH]nc(Cc2ccc(Cl)cc2)n1CCO has TGI of > 100 µM

CC1=CC[C@@H]2C(=O)C=CC=C[C@H]12.[C-]#[O+].[C-]#[O+].[C-]#[O+].[Fe] on A549 NSCLC gives TGI = > 100 µM

Value (TGI, A549 NSCLC) for record O[C@]12c3ccccc3C1CCCC2N1CCOCC1 (stereo partly drawn) = > 100 µM

###

Test system: HCT-15 colon
EXPERIMENT SUMMARY: NCI tumour cell line growth inhibition, 48 h
Can you tell me TGI for the items I'm about to list?

TGI reading for OCC(O)C(OC1OC(CO)C(O)C(O)C1O)c1nn(-c2ccc(Cl)cc2)c2nc3cc(Cl)c(Cl)cc3nc12 (configuration not stated) : > 100 µM

The reported TGI of the compound COc1ccc2c3c1OC1C4(CCC5C(C2)N(CC2CC2)CCC351)OCCO4 (configuration not stated) was > 100 µM

The compound listed as O=C1c2ccccc2-c2c1c1ccc3ccccc3c1n2-c1ccccc1 shows TGI equal to > 100 µM

// CCC12CN(C(=O)OC)C3C(Br)C1CCC(=O)C32 (configuration not stated) : TGI value = > 100 µM

Short answer for FC(F)(F)c1nc2c(ccc3[nH]c4c(-c5ccccc5)nccc4c32)[nH]1 : TGI was > 100 µM

# TGI of O=C1CCCc2cc3c(cc21)CC1(C3)Cc2cc3c(cc2C1)C(=O)CCC3 = > 59.6 µM

What the record says about Cn1c(=S)c2[nH]c(SCc3cccnc3)nc2n(C)c1=O : TGI is > 100 µM

Record COc1ccccc1CC1(O)OC(=O)c2ccccc21 (configuration not stated) . Reported TGI: > 100 µM

Record summary for COc1cc2c(cc1OC)C(Cc1cc(Br)c(OC)c(OC)c1)=[N+](C)CC2 : reported TGI = > 100 µM

Summary for this compound, CCC1=NC(N/N=C/c2ccco2)=N/C1=C\c1ccco1 : TGI is > 100 µM

Item: COc1ccc(-c2n[nH]c3nc4ccccc4n3c2=O)cc1 | TGI: > 100 µM

Looking up Fc1cccc(-c2nc(-c3c[nH]c4ncccc34)cs2)c1 , I found its TGI recorded as > 100 µM
